Where do the numbers come from? From patent US11078170B2.

Test system: HBV viral production from HepAD38 cells
Test: Activity of test compounds on viral production from HepAD38 cells (viral load by qPCR of HBV core sequence in supernatant)
Format: cell-based
Settings: Hepatitis B virus, 120 h, 5 days incubation, HBV DNA in supernatant by qPCR, top concentration 10 μM, read-out: Viral Load EC50 Activity range
pEC50: −log10 of the molar value.
assay_endpoint: pEC50

compound: CN1C(C(=O)Nc2ccc(F)c(Cl)c2)CC(c2ncc(Br)s2)NS1(=O)=O (racemic) [HBV-CSU-122]
pEC50: > 6.00
--
compound: Cc1cc([C@@H]2C[C@H](C(=O)Nc3ccc(F)c(Cl)c3)N(C)S(=O)(=O)N2)sc1-c1cnn(C)c1 [HBV-CSU-300-ISO-II]
pEC50: < 5.30
--
compound: CN1[C@@H](C(=O)Nc2ccc(F)c(Cl)c2)C[C@@H](c2ccc(C(N)=O)cc2)NS1(=O)=O [HBV-CSU-214-ISO-I]
pEC50: < 5.30

Next up:
Tested system HBV viral production from HepAD38 cells; pEC50 recorded for CN1C(C(=O)Nc2ccc(F)c(Cl)c2)CC(c2cccc(OC(F)(F)F)c2)NS1(=O)=O (racemic) [HBV-CSU-262] was > 6.00

---

System: HBV viral production from HepAD38 cells
Test: Activity of test compounds on viral production from HepAD38 cells (viral load by qPCR of HBV core sequence in supernatant)
Type: cell-based
Settings: Hepatitis B virus, 120 h, 5 days incubation, HBV DNA in supernatant by qPCR, top concentration 10 μM, read-out: Viral Load EC50 Activity range
pEC50: −log10 of the molar value.
Overview of reported pEC50 across a group of compounds:

Some solved entries appear below for comparison.
compound: CCOCCN1C(C(=O)Nc2ccc(F)c(Cl)c2)CC(c2nccs2)NS1(=O)=O (racemic)
assay_endpoint: pEC50
recorded_result: > 6.00
--
compound: CN1[C@@H](C(=O)Nc2ccc(F)c(Cl)c2)C[C@@H](c2ccccc2)NS1(=O)=O
assay_endpoint: pEC50
recorded_result: < 5.30
--
compound: CCn1cc(-c2csc([C@H]3C[C@@H](C(=O)Nc4ccc(F)c(Cl)c4)N(C)S(=O)(=O)N3)c2)cn1
assay_endpoint: pEC50
recorded_result: > 6.00

With those in mind, consider the next compound.
Quick note, pEC50 for [2H]C([2H])([2H])N1C(C(=O)Nc2ccc(F)c(Cl)c2)CC(c2ncc(Br)s2)NS1(=O)=O (stereo not shown) landed at > 6.00

---

System: HBV viral production from HepAD38 cells
Test: Activity of test compounds on viral production from HepAD38 cells (viral load by qPCR of HBV core sequence in supernatant)
Type: cell-based
Conditions: Hepatitis B virus, 120 h, 5 days incubation, HBV DNA in supernatant by qPCR, top concentration 10 μM, read-out: Viral Load EC50 Activity range
assay_endpoint: EC50

Completed entries (count: 3):
compound: C#CCN1[C@@H](C(=O)Nc2ccc(F)c(Cl)c2)C[C@@H](c2nccs2)NS1(=O)=O
EC50: > 5 µM
--
compound: CN1C(C(=O)Nc2ccc(F)c(Cl)c2)CC(c2ccc(C(=O)O)cc2)NS1(=O)=O (racemic)
EC50: 1 to 5 µM
--
compound: O=C(Nc1ccc(F)c(Cl)c1)C1CC(c2nccs2)NS(=O)(=O)N1CCCO (racemic)
EC50: 1 to 5 µM

Briefly, EC50 measured for CCc1sc([C@@H]2C[C@H](C(=O)Nc3ccc(F)c(Cl)c3)N(C)S(=O)(=O)N2)cc1-c1cnn(C)c1 : 1 to 5 µM

Form field EC50, entry [2H]C1[C@]([2H])(C(=O)Nc2ccc(F)c(Cl)c2)N(C([2H])([2H])[2H])S(=O)(=O)N[C@]1([2H])c1ncc(-c2cn(C)cn2)s1 (stereo in doubt) : 1 to 5 µM

Measured EC50 of CN1[C@@H](C(=O)Nc2ccc(F)c(Cl)c2)C[C@@H](c2ccc(-c3cnn(CCO)c3)s2)NS1(=O)=O : > 5 µM

---

System: HBV viral production from HepAD38 cells
Assay: Activity of test compounds on viral production from HepAD38 cells (viral load by qPCR of HBV core sequence in supernatant)
Format: cell-based
Details: Hepatitis B virus, 120 h, 5 days incubation, HBV DNA in supernatant by qPCR, top concentration 10 μM, read-out: Viral Load EC50 Activity range
pEC50: −log10 of the molar value.
assay_endpoint: pEC50

molecule: CN1[C@@H](C(=O)Nc2ccc(F)c(Cl)c2)C[C@@H](c2ncc(-c3cncs3)s2)NS1(=O)=O [HBV-CSU-278-ISO-II]
recorded_result: < 5.30

molecule: Cc1nn(C)cc1-c1csc([C@@H]2C[C@H](C(=O)Nc3ccc(F)c(Cl)c3)N(C)S(=O)(=O)N2)c1 (relative stereo) [HBV-CSU-316-ISO-II]
recorded_result: > 6.00

molecule: CN1[C@@H](C(=O)Nc2ccc(F)c(Cl)c2)C[C@@H](c2cc(-c3ccn(C)n3)cs2)NS1(=O)=O [HBV-CSU-288-ISO-II]
recorded_result: 5.30 to 6.00

Reported pEC50 ( CN1[C@H](C(=O)Nc2cccc(Cl)c2)C[C@H](c2cccs2)NS1(=O)=O [HBV-CSU-010-ISO-I] ) = > 6.00

Lab book: pEC50 of CN1C(C(=O)Nc2ccc(F)c(Cl)c2)CC(c2ccc(-c3ccc(C#N)c(F)c3)s2)NS1(=O)=O (racemic) [HBV-CSU-156] noted as > 6.00

// CN1[C@@H](C(=O)Nc2ccc(F)c(Cl)c2)C[C@@H](c2ccc(-c3ccn(C)n3)s2)NS1(=O)=O [HBV-CSU-270-ISO-II] : pEC50 value = 5.30 to 6.00

molecule COc1ccc(-c2cnc([C@@H]3C[C@H](C(=O)Nc4ccc(F)c(Cl)c4)N(C)S(=O)(=O)N3)s2)cc1 [HBV-CSU-250-ISO-II] , pEC50 observed: 5.30 to 6.00

---

Test system: HBV viral production from HepAD38 cells
Test: Activity of test compounds on viral production from HepAD38 cells (viral load by qPCR of HBV core sequence in supernatant)
Type: cell-based
Settings: Hepatitis B virus, 120 h, 5 days incubation, HBV DNA in supernatant by qPCR, top concentration 10 μM, read-out: Viral Load EC50 Activity range
pEC50: −log10 of the molar value.
assay_endpoint: pEC50

The cases that follow already have their pEC50 on record.
molecule: CN1[C@@H](C(=O)Nc2ccc(F)c(Cl)c2)C[C@@H](c2ccc(Cc3ccccc3)s2)NS1(=O)=O
pEC50: 5.30 to 6.00

molecule: Cc1nn(C)c(C)c1-c1ccc([C@H]2C[C@@H](C(=O)Nc3ccc(F)c(Cl)c3)N(C)S(=O)(=O)N2)s1
pEC50: > 6.00

molecule: CN1C(C(=O)Nc2ccc(F)c(Cl)c2)CC(c2ccc(-c3cncnc3)s2)NS1(=O)=O (racemic)
pEC50: > 6.00

Please turn your attention to the following entry.
Lab note: measured pEC50 of CN1C(C(=O)Nc2ccc(F)c(Cl)c2)CC(c2ccc(C#N)cc2)NS1(=O)=O (racemic) was > 6.00

---

EC50 by entry:
System: HBV viral production from HepAD38 cells
Assay: Activity of test compounds on viral production from HepAD38 cells (viral load by qPCR of HBV core sequence in supernatant)
Format: cell-based
Conditions: Hepatitis B virus, 120 h, 5 days incubation, HBV DNA in supernatant by qPCR, top concentration 10 μM, read-out: Viral Load EC50 Activity range

molecule: Cc1nn(C)cc1-c1ccc([C@@H]2C[C@H](C(=O)Nc3ccc(F)c(Cl)c3)N(C)S(=O)(=O)N2)s1 [HBV-CSU-313-ISO-II]
test_system: HBV viral production from HepAD38 cells
assay_endpoint: EC50
recorded_result: 1 to 5 µM

Looking up CN1[C@@H](C(=O)Nc2ccc(F)c(Cl)c2)C[C@@H](c2ncc(-c3ccc(NS(C)(=O)=O)cc3)s2)NS1(=O)=O [HBV-CSU-179-ISO-II] , I found its EC50 recorded as 1 to 5 µM

response.value for CN1[C@H](C(=O)Nc2ccc(F)c(Cl)c2)C[C@H](c2cc(-c3ccc(F)cn3)cs2)NS1(=O)=O (stereo in doubt) [HBV-CSU-243-ISO-II] (field: EC50) = < 1 µM

---

Test system: HBV viral production from HepAD38 cells
Assay: Activity of test compounds on viral production from HepAD38 cells (viral load by qPCR of HBV core sequence in supernatant)
Type: cell-based
Conditions: Hepatitis B virus, 120 h, 5 days incubation, HBV DNA in supernatant by qPCR, top concentration 10 μM, read-out: Viral Load EC50 Activity range
Protocol: Assay Measuring Activity of Test Compounds on Viral Production from HepAD38 Cells […] Subsequently viral load production was assayed by quantitative PCR (qPCR) of the HBV core sequence. […] Viral load was quantified against known HBV DNA standards by using ViiA™ 7 Software. […] Incubated the plate at room temperature for 10 min on an orbital shaker, and then read the plate with a plate reader (TECAN M1000 or Envision). […]
assay_endpoint: EC50

molecule: CS(=O)(=O)CCN1C(C(=O)Nc2ccc(F)c(Cl)c2)CC(c2nccs2)NS1(=O)=O (racemic)
recorded_result: > 5 µM
//
molecule: O=C(Nc1ccc(F)c(Cl)c1)[C@@H]1C[C@H](c2nccs2)NS(=O)(=O)N1CCO (relative stereo)
recorded_result: > 5 µM
//
molecule: CN1[C@@H](C(=O)Nc2ccc(F)c(Cl)c2)C[C@@H](c2cc(Br)cs2)NS1(=O)=O
recorded_result: > 5 µM
//
molecule: Cc1cnc([C@@H]2C[C@H](C(=O)Nc3ccc(F)c(Cl)c3)N(C)S(=O)(=O)N2)s1
recorded_result: > 5 µM
//
molecule: CN1[C@@H](C(=O)Nc2ccc(F)c(Cl)c2)C[C@@H](c2ncc(-c3cccs3)s2)NS1(=O)=O
recorded_result: 1 to 5 µM

With HBV viral production from HepAD38 cells as the test system, CN1[C@H](C(=O)Nc2ccc(F)c(Cl)c2)C[C@H](c2ccc(-c3ccc(F)cc3)s2)NS1(=O)=O showed EC50 of < 1 µM
